compounds and their reported The number of deaths per day course
Tested on: Male ddy mice
Test: Simplified acute toxicity test of N-acetylneuraminates in mice by intravenous injection
Assay type: in vivo
Details: 500 mg/kg i.v.; 7 days
I'd appreciate a reply containing only the number, no unit.

INSERT INTO assay_data (compound, system_name, value_kind, result_value) VALUES
  ('CC(=O)N[C@H]1[C@H]([C@H](O)[C@H](O)CO)OC(O)(C(=O)[O-])C[C@@H]1O.[Li+] (stereo partly shown) [Lithium N-acetylneuraminate]', 'Male ddy mice', 'The number of deaths per day course', 0),
  ('CC(=O)N[C@H]1[C@H]([C@H](O)[C@H](O)CO)OC(O)(C(=O)[O-])C[C@@H]1O.[K+] (stereo partly shown) [Potassium N-acetylneuraminate]', 'Male ddy mice', 'The number of deaths per day course', 0),
  ('CC(=O)N[C@H]1[C@H]([C@H](O)[C@H](O)CO)OC(O)(C(=O)O)C[C@@H]1O (stereo partly shown) [Barium N-acetylneuraminate]', 'Male ddy mice', 'The number of deaths per day course', 0);

Then this compound:
Suppose we examine the compound CC(=O)N[C@H]1[C@H]([C@H](O)[C@H](O)CO)OC(O)(C(=O)O)C[C@@H]1O (stereo partly shown) [Magnesium N-acetylneuraminate] ; what The number of deaths per day course value has been reported?
0

====

System: Male ddy mice
Assay: Simplified acute toxicity test of N-acetylneuraminates in mice by intravenous injection
Assay type: in vivo
Conditions: 500 mg/kg i.v.; 7 days
value_kind: Final Lethality

Field: example entries. Status: answers known.
INSERT INTO assay_data (compound, result_value) VALUES
  ('CC(=O)N[C@H]1[C@H]([C@H](O)[C@H](O)CO)OC(O)(C(=O)[O-])C[C@@H]1O.[K+] (stereo partly shown) [Potassium N-acetylneuraminate]', '0/3'),
  ('CC(=O)N[C@H]1[C@H]([C@H](O)[C@H](O)CO)OC(O)(C(=O)O)C[C@@H]1O (stereo partly shown) [Magnesium N-acetylneuraminate]', '0/3'),
  ('CC(=O)N[C@H]1[C@H]([C@H](O)[C@H](O)CO)OC(O)(C(=O)O)C[C@@H]1O (stereo partly shown) [Barium N-acetylneuraminate]', '3/3');

Now for another entry.
Final Lethality of CC(=O)N[C@H]1[C@H]([C@H](O)[C@H](O)CO)OC(O)(C(=O)[O-])C[C@@H]1O.[Li+] (stereo partly shown) [Lithium N-acetylneuraminate] on Male ddy mice?
0/3

====

# reported The number of deaths per day course; entries follow
Tested on: Male ddy mice
Experiment: Simplified acute toxicity test of N-acetylneuraminates in mice by intravenous injection
Assay type: in vivo
Details: 500 mg/kg i.v.; 1 hrs

Here's what some known entries look like.
INSERT INTO assay_data (compound, result_value) VALUES
  ('CC(=O)N[C@H]1[C@H]([C@H](O)[C@H](O)CO)OC(O)(C(=O)O)C[C@@H]1O (stereo partly shown) [Magnesium N-acetylneuraminate]', 0),
  ('CC(=O)N[C@H]1[C@H]([C@H](O)[C@H](O)CO)OC(O)(C(=O)[O-])C[C@@H]1O.[K+] (stereo partly shown) [Potassium N-acetylneuraminate]', 0),
  ('CC(=O)N[C@H]1[C@H]([C@H](O)[C@H](O)CO)OC(O)(C(=O)O)C[C@@H]1O (stereo partly shown) [Barium N-acetylneuraminate]', 3);

As a next step, examine the compound that follows.
Quick one: The number of deaths per day course for CC(=O)N[C@H]1[C@H]([C@H](O)[C@H](O)CO)OC(O)(C(=O)[O-])C[C@@H]1O.[Li+] (stereo partly shown) [Lithium N-acetylneuraminate] ?
0
